Where these numbers come from: patent US20220162261A1

Kindly supply the reported pIC50 values for the records listed here.
# TARGET_DESC: T1, α4β1 (R&D Systems #5668-A4) (UniProt P13612 34-970; P05556 21-728, limits assumed)
# T1 construct: bought; also called soluble α4β1
# EXPERIMENT: competition ELISA vs VCAM-1
Bridge positions count the residues as written; N and C are the ends. Square brackets hold non-standard residues; d marks the D form. NMeR = CN[C@@H](CCCNC(=N)N)C(=O)O; Pen = CC(C)(S)[C@H](N)C(=O)O
pIC50 field: float, defined as -log10 of concentration (mol/L).

Problem: Would you kindly share the measured pIC50 for XRSDTLXWK ((Ac Pen N-Me-R S D T L Pen W k NH2)2 DIG; disulfide Pen-Pen, also called peptide 209) [SEQ ID NO: 209] ?
Result: 6.43

Problem: // query pIC50 value for entry Ac-CRSDTLCGE-NH2 (disulfide 1-7 (inferred), also called peptide 194) [SEQ ID NO: 194]
Result: 5.69

Problem: What does the data say about its pIC50? Entry: Ac-C[NMeR]SDTLCGEK-OH (disulfide 1-7 (inferred); also: dimer linked by DIG, attachment not given here, also called peptide 201) [SEQ ID NO: 201]
Result: 5.91

Problem: Entry Ac-C[NMeR]SDTL[Pen]E[dK]-NH2 (disulfide 1-7; also: homodimer via DIG linker on D-Lys9 side chains, also called peptide 205) [SEQ ID NO: 205] : reported pIC50 = ?
Result: 6.35

Problem: Name the recorded pIC50 for Ac-C[NMeR]SDTLCK-OH (disulfide 1-7 (inferred); also: dimer linked by PEG25, attachment not given here, also called peptide 200) [SEQ ID NO: 200] .
Result: 4.78
